Reference source for all entries: patent US20190308988A1

Experiment: Solubility determination in oil (Table 10)
Settings: 25 °C, oil or lipid, thermodynamic from solid, Approximate Solubility in Excipient: Cottonseed oil, Heating Temp. 60 °C, Obs. Temp. 25 °C
Description: A known amount of test substance (˜40 mg) was weighed into the vial, 100 μL of oil was added and heated to 60° C. and then system was slurried to reach equilibrium. […] Extra oil was added into the vial once compound precipitated out and then the system was re-equilibrated at 1000 rpm at room temperature (25° C.). Final concentration was determined by HPLC method as described below in Table 6a and 6b.
Reported Endpoint: solubility at 24 h

smiles_repr=C=C1CC[C@@]2(O)C3Cc4ccc(OC(=O)OCCCCCCCCCCCCCCCCCC)c5c4[C@@]2(CCN3CC2CC2)[C@H]1O5 reported_endpoint="solubility at 24 h" result="< 50 mg/mL"
smiles_repr=C=C1CC[C@@]2(O)C3Cc4ccc(OC(=O)CCCCCCC/C=C\C/C=C\C/C=C\CC)c5c4[C@@]2(CCN3CC2CC2)[C@H]1O5 reported_endpoint="solubility at 24 h" result="68 to 82 mg/mL"
smiles_repr=C=C1CC[C@@]2(O)C3Cc4ccc(OC(=O)CCCCCCC/C=C/CCCCCCCC)c5c4[C@@]2(CCN3CC2CC2)[C@H]1O5 reported_endpoint="solubility at 24 h" result="> 403 mg/mL"

Please look at this compound and report its solubility at 24 h: C=C1CC[C@@]2(O)C3Cc4ccc(OC(=O)CCCCCCC/C=C\C/C=C\CCCCC)c5c4[C@@]2(CCN3CC2CC2)[C@H]1O5 68.5 to 82 mg/mL

Please look at this compound and report its solubility at 24 h: CCCCCCCCCCCCCCCCCCCC(=O)Oc1ccc2c3c1O[C@H]1C(=O)CC[C@@]4(O)C(C2)N(CC2CC2)CC[C@]314 < 51 mg/mL

Please look at this compound and report its solubility at 24 h: C=C1CC[C@@]2(O)C3Cc4ccc(OC(=O)CCC5CCCC5)c5c4[C@@]2(CCN3CC2CC2)[C@H]1O5 104 to 139 mg/mL

Please look at this compound and report its solubility at 24 h: C=C1CC[C@@]2(O)C3Cc4ccc(OC(=O)OCCCCCCCC)c5c4[C@@]2(CCN3CC2CC2)[C@H]1O5 > 408 mg/mL

Please look at this compound and report its solubility at 24 h: CCCCCCCCCCCCCC(=O)Oc1ccc2c3c1O[C@H]1C(=O)CC[C@@]4(O)C(C2)N(CC2CC2)CC[C@]314 > 424 mg/mL
